Each item that follows carries a reported MIC.
System: E. coli d4-OLR-pen10 (O157:H7)
test-method-notes: MIC broth microdilution, E. coli strains
Assay type: cell-based
experimental-parameters: Escherichia coli
endpoint-label: MIC

# molecule, test-value
data = [
    ("O=[N+]([O-])c1ccc(C=Cc2nc(Nc3ccc(O)cc3)c3cc(F)ccc3n2)o1 [Compound V]", "1 µg/mL"),
    ("O=C1CN(/N=C/c2ccc([N+](=O)[O-])o2)C(=O)N1 [Nitrofurantoin]", "16 µg/mL"),
    ("CC1(C)S[C@@H]2[C@H](NC(=O)[C@H](N)c3ccccc3)C(=O)N2[C@H]1C(=O)O [Ampicillin]", "2 to 4 µg/mL"),
    ("CN(C)[C@@H]1C(O)=C(C(N)=O)C(=O)[C@@]2(O)C(O)=C3C(=O)c4c(O)cccc4[C@@](C)(O)[C@H]3C[C@@H]12 [Tetracycline]", "> 32 µg/mL"),
]

----------
test-method-notes: Solubility in water
Format: physicochemical
experimental-parameters: read-out: solubility in water (no visible particles)
Each item that follows carries a reported solubility.

# sample-smiles, solubility
rows = [
    ("O=[N+]([O-])c1ccc(C=Cc2nc(Nc3ccc(O)cc3)c3cc(F)ccc3n2)o1", "250 µg/mL"),
    ("CN1CCN(c2cc3nc(C=Cc4ccc([N+](=O)[O-])o4)nc(Nc4ccc(O)cc4)c3cc2F)CC1", "1000 µg/mL"),
]

----------
Each item that follows carries a reported MIC.
Test system: H. influenzae ATCC 49247

# sample-smiles, subject-of-test, MIC, µg/mL
rows = [
    ("CC[C@H]1OC(=O)[C@H](C)[C@@H](O[C@H]2C[C@@](C)(OC)[C@@H](O)[C@H](C)O2)[C@H](C)[C@@H](O[C@@H]2O[C@H](C)C[C@H](N(C)C)[C@H]2O)[C@](C)(O)C[C@@H](C)C(=O)[C@H](C)[C@@H](O)[C@]1(C)O", "H. influenzae ATCC 49247", 2),
    ("CC[C@H]1OC(=O)[C@H](C)[C@@H](O[C@H]2C[C@@](C)(OC)[C@@H](O)[C@H](C)O2)[C@H](C)[C@@H](O[C@@H]2O[C@H](C)C[C@H](N(C)C)[C@H]2O)[C@](C)(OC)C[C@@H](C)C(=O)[C@H](C)[C@@H](O)[C@]1(C)O", "H. influenzae ATCC 49247", 16),
    ("C[C@@H](O)[C@H]1C(=O)N2C(C(=O)O)=C(S[C@@H]3CN[C@H](C(=O)N(C)C)C3)[C@H](C)[C@H]12", "H. influenzae ATCC 49247", 0.06),
    ("CN1CCN(c2cc3nc(C=Cc4ccc([N+](=O)[O-])o4)nc(Nc4ccc(O)cc4)c3cc2F)CC1", "H. influenzae ATCC 49247", 2),
    ("O=[N+]([O-])c1ccc(C=Cc2nc(Nc3ccc(O)cc3)c3cc(F)ccc3n2)o1", "H. influenzae ATCC 49247", 0.03),
    ("CO/N=C(\\C(=O)N[C@@H]1C(=O)N2C(C(=O)O)=C(COC(C)=O)CS[C@H]12)c1csc(N)n1", "H. influenzae ATCC 49247", 0.12),
]

----------
Each item that follows carries a reported MBC.
Tested on: B. catarrhalis ATCC 8176
test-method-notes: Minimal Bactericidal Concentration (MBC)
Format: cell-based, Branhamella (Moraxella) catarrhalis
experimental-parameters: Moraxella catarrhalis, ATCC8176, 99.9% killing

# compound, subject-of-test, unit-name, measurement-qualifier, MBC
records = [
    ("CC[C@H]1OC(=O)[C@H](C)[C@@H](O[C@H]2C[C@@](C)(OC)[C@@H](O)[C@H](C)O2)[C@H](C)[C@@H](O[C@@H]2O[C@H](C)C[C@H](N(C)C)[C@H]2O)[C@](C)(OC)C[C@@H](C)C(=O)[C@H](C)[C@@H](O)[C@]1(C)O [Clarithromycin]", "B. catarrhalis ATCC 8176", "µg/mL", "=", 1),
    ("O=[N+]([O-])c1ccc(C=Cc2nc(Nc3ccc(O)cc3)c3cc(F)ccc3n2)o1 [Compound V]", "B. catarrhalis ATCC 8176", "µg/mL", "=", 0.03),
    ("CO/N=C(\\C(=O)N[C@@H]1C(=O)N2C(C(=O)O)=C(COC(C)=O)CS[C@H]12)c1csc(N)n1 [Cefotaxime]", "B. catarrhalis ATCC 8176", "µg/mL", "=", 0.06),
    ("CC1(C)S[C@@H]2[C@H](NC(=O)[C@H](N)c3ccccc3)C(=O)N2[C@H]1C(=O)O [Ampicillin]", "B. catarrhalis ATCC 8176", "µg/mL", "≤", 0.03),
    ("C[C@@H](O)[C@H]1C(=O)N2C(C(=O)O)=C(S[C@@H]3CN[C@H](C(=O)N(C)C)C3)[C@H](C)[C@H]12 [Meropenem]", "B. catarrhalis ATCC 8176", "µg/mL", "=", 0.008),
    ("CC[C@H]1OC(=O)[C@H](C)[C@@H](O[C@H]2C[C@@](C)(OC)[C@@H](O)[C@H](C)O2)[C@H](C)[C@@H](O[C@@H]2O[C@H](C)C[C@H](N(C)C)[C@H]2O)[C@](C)(O)C[C@@H](C)C(=O)[C@H](C)[C@@H](O)[C@]1(C)O [Erythromycin]", "B. catarrhalis ATCC 8176", "µg/mL", "=", 0.12),
]

----------
Each item that follows carries a reported log10 of MIC.
Test system: E. faecium ATCC 35667
test-method-notes: MIC broth microdilution (NCCLS)
Type: cell-based, Enterococcus faecium
experimental-parameters: Enterococcus faecium, ATCC35667, E. faecium ATCC 35667; read-out: MIC
Procedure: Minimal Inhibitory Concentration (MIC) Determination. Bacteria (primary strain panel, TABLE 1). Susceptibility tests were performed following the recommendations from the National Committee for Clinical Standards (NCCLS). The MICs were determined by a broth microdilution technique using a final volume of 100 μl of cation-adjusted Mueller Hinton Broth (MHBCA) and a bacterial inoculum of 10^5-10^6 Colony Forming Units (CFU)/ml. […] The CFU were counted after an incubation of 24 h at 35° C. […]
endpoint-label: log10 of MIC (log10 of the value in µg/mL)

# sample-smiles, subject-of-test, test-value
measured = [
    ("CO/N=C(\\C(=O)N[C@@H]1C(=O)N2C(C(=O)O)=C(CSc3nc(=O)c(=O)[nH]n3C)CS[C@H]12)c1csc(N)n1", "E. faecium ATCC 35667", 1.81),
    ("CO/N=C(\\C(=O)N[C@@H]1C(=O)N2C(C(=O)O)=C(COC(C)=O)CS[C@H]12)c1csc(N)n1", "E. faecium ATCC 35667", 1.20),
    ("CC1(C)S[C@@H]2[C@H](NC(=O)[C@H](N)c3ccccc3)C(=O)N2[C@H]1C(=O)O", "E. faecium ATCC 35667", 0.00),
    ("CN1CCN(c2cc3nc(C=Cc4ccc([N+](=O)[O-])o4)nc(Nc4ccc(O)cc4)c3cc2F)CC1", "E. faecium ATCC 35667", 0.90),
    ("CCn1cc(C(=O)O)c(=O)c2cc(F)c(N3CCNCC3)cc21", "E. faecium ATCC 35667", 1.20),
    ("CC[C@H]1OC(=O)[C@H](C)[C@@H](O[C@H]2C[C@@](C)(OC)[C@@H](O)[C@H](C)O2)[C@H](C)[C@@H](O[C@@H]2O[C@H](C)C[C@H](N(C)C)[C@H]2O)[C@](C)(O)C[C@@H](C)C(=O)[C@H](C)[C@@H](O)[C@]1(C)O", "E. faecium ATCC 35667", 0.30),
]

----------
Tested on: E. faecium ATCC 35667
test-method-notes: MIC broth microdilution (NCCLS)
Format: cell-based, Enterococcus faecium
experimental-parameters: Enterococcus faecium, ATCC35667, E. faecium ATCC 35667; read-out: MIC
endpoint-label: MIC (µg/mL)

# sample-smiles, subject-of-test, test-value
measured = [
    ("C[C@@H](O)[C@H]1C(=O)N2C(C(=O)O)=C(SCCN=CN)C[C@H]12", "E. faecium ATCC 35667", 2),
    ("CO[C@H]1/C=C/O[C@@]2(C)Oc3c(C)c(O)c4c(O)c(c(/C=N/N5CCN(C)CC5)c(O)c4c3C2=O)NC(=O)/C(C)=C\\C=C\\[C@H](C)[C@H](O)[C@@H](C)[C@@H](O)[C@@H](C)[C@H](OC(C)=O)[C@@H]1C", "E. faecium ATCC 35667", 32),
    ("O=C1CN(/N=C/c2ccc([N+](=O)[O-])o2)C(=O)N1", "E. faecium ATCC 35667", 64),
    ("Cc1onc(-c2ccccc2)c1C(=O)N[C@@H]1C(=O)N2[C@@H]1SC(C)(C)[C@@H]2C(=O)O", "E. faecium ATCC 35667", 32),
    ("C[C@@H](O)[C@H]1C(=O)N2C(C(=O)O)=C(S[C@@H]3CN[C@H](C(=O)N(C)C)C3)[C@H](C)[C@H]12", "E. faecium ATCC 35667", 16),
    ("NC(=O)N/N=C/c1ccc([N+](=O)[O-])o1", "E. faecium ATCC 35667", 128),
    ("O=[N+]([O-])c1ccc(C=Cc2nc(Nc3ccc(O)cc3)c3cc(F)ccc3n2)o1", "E. faecium ATCC 35667", 0.06),
    ("O=C(N[C@H](CO)[C@H](O)c1ccc([N+](=O)[O-])cc1)C(Cl)Cl", "E. faecium ATCC 35667", 8),
]

Data provenance: patent US7410974B2
